System: mTORc1 signaling, pS6 (Ser240/244) in MEF TSCl−/− cells
PROCEDURE_TEXT: Cell-based assay for rapalog potency (pS6) in MEF TSCl−/− cells
SETTINGS: Mus musculus, 2 hours treatment, average from multiple assays
Parameter IC50: see the listing below.
Number only, in µM; omit the unit.

COMPOUND	UNIT_INFO	MEASURED_VALUE
CO[C@@H]1C[C@H](C[C@@H](C)[C@@H]2CC[C@H](C)/C=C(\C)[C@@H](O)[C@@H](OC)C(=O)[C@H](C)C[C@H](C)/C=C/C=C/C=C(\C)[C@H](NCCS(=O)(=O)O)C[C@@H]3CC[C@@H](C)[C@@](O)(O3)C(=O)C(=O)N3CCCC[C@H]3C(=O)O2)CC[C@H]1OCCO [Compound 41]	µM	0.033

# ---- query compound ----
What does the record list as IC50 for CO[C@@H]1C[C@H](C[C@@H](C)[C@@H]2CC[C@H](C)/C=C(\C)[C@@H](O)[C@@H](OC)C(=O)[C@H](C)C[C@H](C)/C=C/C=C/C=C(\C)[C@H](NS(=O)(=O)C(C)C)C[C@@H]3CC[C@@H](C)[C@@](O)(O3)C(=O)C(=O)N3CCCC[C@H]3C(=O)O2)CC[C@H]1O [Compound 8] ?
0.0045
